Below: a set of entries, each annotated with reported Ratio Ki.
subject of test: Adenosine receptors; A1 & A3 (Homo sapiens) (UniProt P30542+P0DMS8)
Sequence (P0DMS8 whole entry, looked up): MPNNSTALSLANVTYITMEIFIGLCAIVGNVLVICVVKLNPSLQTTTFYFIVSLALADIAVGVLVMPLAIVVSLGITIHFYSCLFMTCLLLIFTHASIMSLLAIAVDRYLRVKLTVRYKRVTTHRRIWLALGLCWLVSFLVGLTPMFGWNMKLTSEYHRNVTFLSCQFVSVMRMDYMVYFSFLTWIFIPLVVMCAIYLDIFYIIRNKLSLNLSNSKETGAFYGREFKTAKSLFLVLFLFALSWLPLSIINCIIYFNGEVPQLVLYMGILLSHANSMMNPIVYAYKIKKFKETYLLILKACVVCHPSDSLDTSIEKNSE
Sequence (P30542 whole entry, looked up): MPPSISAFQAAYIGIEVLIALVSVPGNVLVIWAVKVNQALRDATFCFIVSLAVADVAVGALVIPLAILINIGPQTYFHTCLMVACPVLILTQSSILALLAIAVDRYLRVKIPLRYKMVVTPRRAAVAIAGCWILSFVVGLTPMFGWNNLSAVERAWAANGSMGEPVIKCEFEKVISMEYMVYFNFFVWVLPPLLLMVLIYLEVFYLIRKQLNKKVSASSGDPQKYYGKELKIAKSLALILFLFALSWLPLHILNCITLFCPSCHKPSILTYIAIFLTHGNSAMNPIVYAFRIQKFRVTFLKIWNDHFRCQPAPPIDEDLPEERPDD
assay overview: Selectivity ratio of Ki for human adenosine A1 receptor to Ki for human adenosine A3 receptor

Record excerpt, results attached:
INSERT INTO results (sample_smiles, observed_value) VALUES
  ('CNC(=O)[C@H]1O[C@@H](n2cnc3c(NC)nc(C#Cc4ccccn4)nc32)[C@H](O)[C@@H]1O', 21800),
  ('CNC(=O)[C@H]1O[C@@H](n2cnc3c(NC)nc(C#Cc4ccc(F)cc4)nc32)[C@H](O)[C@@H]1O', 12400),
  ('CNC(=O)[C@H]1O[C@@H](n2cnc3c(NC)nc(C#Cc4ccc(C(C)=O)cc4)nc32)[C@H](O)[C@@H]1O', 30900);

Continue with the next molecule.
Q: Any idea what its Ratio Ki is? The molecule is CNC(=O)[C@H]1O[C@@H](n2cnc3c(NC)nc(C#Cc4ccccc4)nc32)[C@H](O)[C@@H]1O
Result: 85
